For each of the compounds below, state its growth.
tested on: LOX IMVI melanoma; experiment: NCI-60 one-dose screen, 48 h (100 = growth as untreated, 0 = no growth, -100 = all killed); details: 10 µM
The panel holds about 83,000 compounds, 20% with a hit somewhere; the sample as a whole holds those more often.
Numbers only, in %.

Past entries and their recorded results:
>  <COMPOUND>
N#Cc1c(-c2ccc(Cl)cc2)cc(-c2ccccc2)nc1OCc1ccccc1

>  <UNIT_DESCRIPTOR>
%

>  <VALUE>
65.7

$$$$
>  <COMPOUND>
C=C[C@@]12CN3CC[C@]1(O)[C@@](C(=O)OC)(CO2)c1[nH]c2ccccc2c1C3

>  <UNIT_DESCRIPTOR>
%

>  <VALUE>
67.2

$$$$
>  <COMPOUND>
COc1ccc2[nH]c(O)c(N=NC(=O)COc3ccc(NC(=O)Nc4ccc(Cl)cc4)cc3)c2c1

>  <UNIT_DESCRIPTOR>
%

>  <VALUE>
-59.7

$$$$
>  <COMPOUND>
COc1ccc2nc(Cl)c(-c3cc(-c4ccccc4)nc(N)n3)cc2c1

>  <UNIT_DESCRIPTOR>
%

>  <VALUE>
-86

$$$$
>  <COMPOUND>
O=c1cc(-c2ccccc2)oc2cc(OCCCCNCc3ccccc3)cc(O)c12

>  <UNIT_DESCRIPTOR>
%

>  <VALUE>
-99.9

$$$$
>  <COMPOUND>
N#Cc1c(NC(=O)c2ccc(C(F)(F)F)c(Cl)c2)sc2c1CCC(=O)C2

>  <UNIT_DESCRIPTOR>
%

>  <VALUE>
-52.6

$$$$
>  <COMPOUND>
COc1cccc(C(N)=Nc2ccc(OCCCCCCn3cncn3)cc2)c1

>  <UNIT_DESCRIPTOR>
%

>  <VALUE>
36

$$$$
>  <COMPOUND>
c1ccc(C(=C(c2ccc(OCCN3CCCCC3)cc2)c2ccc(OCCN3CCCCC3)cc2)C2CCCC2)cc1

>  <UNIT_DESCRIPTOR>
%

>  <VALUE>
-100

$$$$
>  <COMPOUND>
Cc1noc2c(Cc3ccc([N+](=O)[O-])cc3)nn(CC(=O)N/N=C/c3ccc(Br)cc3)c(=O)c12

>  <UNIT_DESCRIPTOR>
%

>  <VALUE>
52.2

$$$$
>  <COMPOUND>
O=C(CSc1nnc(-c2ccc3nc(-c4ccc(Cl)cc4)[nH]c3c2)o1)Nc1ccc(Br)cc1

>  <UNIT_DESCRIPTOR>
%

>  <VALUE>
-100

$$$$

Hi! Can you tell me growth for each of these compounds?
1. OCc1[nH]nc2cc(Nc3ncc4ccc(Br)c(OC5CCC(O)CC5)c4n3)ccc12 (centres undefined)
2. CN(C)CCNC(=O)OCCCCOc1cc(O)c2c(=O)cc(-c3ccccc3)oc2c1
3. O=c1nc(-c2ccccc2)cc(-c2cc3ccccc3nc2Cl)[nH]1

[-81.5, -100, -87.7]

I'd like to know its growth. The compound in question is `CC(C)c1ccc(C(=O)Nc2sc3c(c2C(N)=O)CCC(=O)C3=O)cc1`
82.7

###

test system: UO-31 renal; assay: NCI-60 one-dose screen, 48 h (100 = growth as untreated, 0 = no growth, -100 = all killed); conditions: 10 µM
About 83,000 compounds went through this panel and 20% of them were active in at least one assay; those are over-represented in the sample as a whole.
MEASURED_PARAMETER: growth (%)
One number for each entry, in %.

Guide cases for growth, answers given:
>  <MOLECULE>
COc1cnc2c(c1)C(=O)c1c-2n(CCCNC(C)C)c(=O)c2cc(OC)c(OC)cc12

>  <UNIT_DESCRIPTOR>
%

>  <growth>
29.5

$$$$
>  <MOLECULE>
C#Cc1ccc(S(=O)(=O)Nc2cccc(-c3csc(NC(C)=O)n3)c2)cc1

>  <UNIT_DESCRIPTOR>
%

>  <growth>
-81.1

$$$$
>  <MOLECULE>
CCN(CC)CCOc1ccc(C(=C(C)c2ccccc2)c2ccc(OCCN(CC)CC)cc2)cc1

>  <UNIT_DESCRIPTOR>
%

>  <growth>
-41.6

$$$$
>  <MOLECULE>
Brc1ccc(/C=C/c2n(Cc3ccc4ccccc4c3)c3ccccc3[n+]2Cc2ccc3ccccc3c2)cc1

>  <UNIT_DESCRIPTOR>
%

>  <growth>
44.6

$$$$
>  <MOLECULE>
Cc1noc2c(Cc3ccc([N+](=O)[O-])cc3)nn(CC(=O)N/N=C/c3ccc(Br)cc3)c(=O)c12

>  <UNIT_DESCRIPTOR>
%

>  <growth>
57.7

$$$$
>  <MOLECULE>
O=C(NO)c1ccc(CNC(=O)[C@H]2Cc3c([nH]c4ccccc34)[C@H](c3ccc(Cl)cc3)N2)cc1

>  <UNIT_DESCRIPTOR>
%

>  <growth>
21.8

$$$$

For every item below, please supply its growth.
1. C=CCn1c(SCC(=O)Nc2ccc(C(=O)/C=C/c3ccccc3)cc2)nnc1-c1c[nH]c2ccccc12
2. COc1ccccc1[C@H]1C(C(=O)c2ccc(O)cc2)C2(N[C@@H]1c1ccccc1)C(=O)Nc1ccc(Br)cc12 (some centres not stated)

31.2
27.9

Would you mind listing growth for each of the following molecules?
1. CN1CCc2c(sc3ncnc(N/N=C/c4ccc5ccccc5c4)c23)C1
2. O=C1N/C(=N\c2nccs2)S/C1=C\c1cccs1
3. CO[C@@H]1CSSC1Cn1nc(-c2ccc(Oc3ccccc3)cc2)c2c(N)ncnc21 (some centres not stated)
4. O=C(Nc1ccc(I)cc1)Nc1nc2ccc([N+](=O)[O-])cc2s1
5. O=C(Nc1cccc(-c2cn(-c3ccc4oc(=O)ccc4c3)nn2)c1)Nc1cc(C(F)(F)F)cc(C(F)(F)F)c1

1: 60.5; 2: 20.8; 3: 21.3; 4: -100; 5: 30.9

Provide growth for all items below, preserving their order.
1. COc1ccc(C(=O)Nc2sc3c(c2C#N)CCC(=O)C3)cc1C(F)(F)F
2. COc1cc2c(cc1OC)/C(=C\c1sc(Nc3ccc(O)cc3)nc1O)C(C(=O)O)=N2
3. C=C[C@@]12CN3CC[C@]1(O)[C@@](C(=O)OC)(CO2)c1[nH]c2ccccc2c1C3
4. O=C(Nc1ccccc1)Nc1nc2ccccc2s1

1: -18.2; 2: 39.7; 3: 69.5; 4: 57.5
